# experimentSummary: protein stability index of a GFP-peptide fusion (GPS, HEK-293T) (PSI 1-6); higher = more stable;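 note: 24-mer peptide tiles fused after GFP, lentivirally expressed, FACS-sorted into six equal bins by GFP/DsRed ratio, decoded by Illumina sequencing, PSI is the read-weighted mean bin number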
# recordedConditions: treatment: MLN4924 1 uM, 8 h; c terminus: a fixed tail appended
Mark Criterion not met for protein stability index values under 3, and Criterion met for everything at or above.

Query: Hi, just wondering whether TMDNKKGRRYEAVKWMVVFAIGVC [CLCN6] shows protein stability index of 3 or higher.
Result: Criterion not met

Query: Hi, just wondering whether RLSKELLAEYQDLTFLTKQEILLA [CIB1] shows protein stability index of 3 or higher.
Result: Criterion not met

Query: Hi, just wondering whether GRSRLYHDGKNQPGVAYPAFLGPD [SPSB4] shows protein stability index of 3 or higher.
Result: Criterion met

Query: Hi, just wondering whether QKRETLSPLCLIPMVTSPREEQQL [KCTD13] shows protein stability index of 3 or higher.
Result: Criterion met

Query: Hi, just wondering whether ADMLKQYFRDLPEPLMTNKLSETF [DLC1] shows protein stability index of 3 or higher.
Result: Criterion not met

Query: Hi, just wondering whether GVIATKQFSRGDFVVEYHGDLIEI [KMT5A] shows protein stability index of 3 or higher.
Result: Criterion not met

Query: Hi, just wondering whether EQLLVLVEWAKYIPAFCELPLDDQ [HNF4A] shows protein stability index of 3 or higher.
Result: Criterion not met

----------
# experimentSummary: protein stability index of a GFP-peptide fusion (GPS, HEK-293T) (PSI 1-6); higher = more stable
# recordedConditions: treatment: DMSO; c terminus: a fixed tail appended
Record form. Attribute: protein stability index. Fill in for each entry.

Query: // protein stability index lookup, key: GGVCCTVTLNFNVPGEFKQDVTVV [GFOD1]
Result: 2.94

Query: // protein stability index lookup, key: TVFRAILDYYKTGIIRCPDGISIP [BTBD10]
Result: 3.01

Query: // protein stability index lookup, key: CPVPAHRRGSWRLPYTDGLSWELL [CTBP1-DT]
Result: 2.49

Query: // protein stability index lookup, key: ERLVAQFPSSGRFWKLYIEAEVTI [CSTF3]
Result: 2.93

Query: // protein stability index lookup, key: MVFSGLCPLLLGSVMAIERCIGVT [PTGFR]
Result: 3.4

Query: // protein stability index lookup, key: ETYLQNHFAEEERSKYDYLMILRR [TENT5C]
Result: 2.84

----------
# experimentSummary: protein stability index of a GFP-peptide fusion (GPS, HEK-293T) (PSI 1-6); higher = more stable
# recordedConditions: treatment: DMSO; c terminus: a fixed tail appended
Record form. Attribute: protein stability index. Fill in for each entry.

Query: // protein stability index lookup, key: ASHQQQVLPPRQPSALVPSVTEYR [MYBL2]
Result: 4.38

Query: // protein stability index lookup, key: TEALILQLFSQIGPCKNCKMIMDT [TIA1]
Result: 2.75

Query: // protein stability index lookup, key: MWVRFRAFEAARDLDACALVRGHR [ZSWIM9]
Result: 2.17

Query: // protein stability index lookup, key: LKTKDGKLPFCAMGVSSVIHPKNP [CPOX]
Result: 3.17

Query: // protein stability index lookup, key: KAGFTASPFTNLLNGSSQPTTRNY [CDC14A]
Result: 3.38

Query: // protein stability index lookup, key: AVLGFPGFSSGRHRWQVDLQLGDG [TRIM15]
Result: 2.18

Query: // protein stability index lookup, key: TVSSPIPYTPSPSSSRPISPGLSY [CCDC6]
Result: 3.58

Query: // protein stability index lookup, key: VAKLESECLKRQGQREPGSLSRNN [FBXO34]
Result: 4.77

Query: // protein stability index lookup, key: GVIATKQFSRGDFVVEYHGDLIEI [KMT5A]
Result: 2.37

Query: // protein stability index lookup, key: AVEAGQEECAKWLLLNNANPNLSN [RIPK4]
Result: 3.82

Query: // protein stability index lookup, key: YQPAPYFAAEARYPIYVIPEPPPV [TENT5D]
Result: 2.02

Query: // protein stability index lookup, key: GPVQVVLVQKDQHSFELDEKALAS [ATL3]
Result: 3.65

Query: // protein stability index lookup, key: RVIMIVTDGRPQDSVAEVAAKARD [MATN2]
Result: 3.17

Query: // protein stability index lookup, key: FRDPIWSTWALYGRAVDQDKVLRF [MYORG]
Result: 2.12

Query: // protein stability index lookup, key: KVYDDMAFRYLSWILFPLLGCYAV [CLPTM1]
Result: 3.15

Query: // protein stability index lookup, key: GGSSTSERCLLNNSLWKKNKTICK [NLN]
Result: 3.44

Query: // protein stability index lookup, key: GNLGSLEKSVTKDAEGLAARDVQK [INTS4]
Result: 5.46

Data origin: the supplement of paper PMC10567573
